- targetOfAssay: FGFR3 (UniProt P22607)
- Sequence (P22607 whole entry, looked up): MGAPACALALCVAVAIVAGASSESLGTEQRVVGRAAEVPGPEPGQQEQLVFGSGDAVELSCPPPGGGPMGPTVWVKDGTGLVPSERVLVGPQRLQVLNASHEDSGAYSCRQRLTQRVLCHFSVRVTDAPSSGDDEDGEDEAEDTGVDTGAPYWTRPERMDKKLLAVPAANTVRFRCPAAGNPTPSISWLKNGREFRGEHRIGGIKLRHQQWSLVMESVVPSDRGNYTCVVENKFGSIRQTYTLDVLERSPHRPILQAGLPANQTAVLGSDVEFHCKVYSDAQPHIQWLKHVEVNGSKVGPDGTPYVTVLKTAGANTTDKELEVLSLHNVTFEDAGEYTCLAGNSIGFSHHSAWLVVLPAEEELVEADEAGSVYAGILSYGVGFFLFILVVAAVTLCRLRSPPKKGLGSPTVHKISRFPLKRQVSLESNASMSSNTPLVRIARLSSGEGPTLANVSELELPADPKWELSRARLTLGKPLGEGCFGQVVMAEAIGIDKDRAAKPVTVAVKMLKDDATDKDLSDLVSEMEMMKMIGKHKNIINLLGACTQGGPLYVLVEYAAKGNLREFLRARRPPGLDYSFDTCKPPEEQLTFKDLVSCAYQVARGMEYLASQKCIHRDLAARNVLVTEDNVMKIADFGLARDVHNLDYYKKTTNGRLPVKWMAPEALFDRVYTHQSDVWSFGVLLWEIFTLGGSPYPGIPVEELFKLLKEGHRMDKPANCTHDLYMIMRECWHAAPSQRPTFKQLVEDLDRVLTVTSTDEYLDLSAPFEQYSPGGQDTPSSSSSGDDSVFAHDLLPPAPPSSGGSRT
- testName: phosphorylation enrichment, bacterial display (enrichment ratio); higher = better substrate or ligand; peptides without Tyr show the background;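 further: 11-residue human phosphosite peptides and single-mutation variants displayed on the E. coli surface, counted by deep sequencing, each peptide's frequency after selection divided by its frequency in the unselected input library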;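 further: frequency after pTyr selection over input frequency; kinase dosed for 20-30% of maximal phosphorylation in three min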
reportedEndpoint: phosphorylation enrichment
The reply should be a number, written without any unit.

Below, each entry is followed by its recorded phosphorylation enrichment result.
sequenceEntry: VATRWYRSPEP [CDKL5_Y177_L182P]
recordedMeasurement: 0.523

sequenceEntry: QRKPSYNQLPS [BRCA2_Y71_A75P]
recordedMeasurement: 0.598

sequenceEntry: YGLQAYTKVKT [ALDH2_Y502_E504K]
recordedMeasurement: 0.679

sequenceEntry: YPLELYERVRI [PRKCG_Y312_M317I]
recordedMeasurement: 0.56

sequenceEntry: EPDSLYGCGRG [ATM_Y2019_G2023R]
recordedMeasurement: 0.576

sequenceEntry: KRIETYFSKNF [PLP1_Y50_L46R_YF]
recordedMeasurement: 0.532

sequenceEntry: RVLQLYGCSPS [ASTL_Y279_K277Q]
recordedMeasurement: 1.26

sequenceEntry: CTLLPYYSAPV [DGKE_Y269_R273P]
recordedMeasurement: 1.3

sequenceEntry: IRKDLYANNVL [ACTA2_Y296]
recordedMeasurement: 0.564

sequenceEntry: KPPFSYNALIR [FOXG1_Y186_M191R]
recordedMeasurement: 0.519

Quick check: phosphorylation enrichment of HLVLNYGVCIC [JAK2_Y613_V617I] ?
1.46

Same lookup for PADCRYYAFPQ [GAMT_Y222] , please.
8.15

Same lookup for CSHMFYGKQCC [ADAMTS16_Y1211_K1209M] , please.
0.606
